Tested on: ATP;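 further: ATP exposure 15 min at 22 °C before imaging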
protocol.notes: switch fluorescence ratio, 500 uM ATP over buffer (Cy3 cluster intensity, sum of 5 cycles each) (fold (ratio)); higher = stronger signal-on switching upon ATP binding; sequences stand for … in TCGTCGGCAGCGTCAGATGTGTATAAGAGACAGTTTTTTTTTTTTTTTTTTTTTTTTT…TC
experimental.context: aptamer strand: ATP DNA aptamer (quencher-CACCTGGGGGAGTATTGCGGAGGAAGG + anchor), 100 nM annealed; ATP concentration: 500 uM
Task for the reader: assign each of the following sequences its reported switch fluorescence ratio.
Reply with just the number.

Exercise: Return switch fluorescence ratio (reported value) for this sequence: GAAGTAACAG
Key: 1.03

Exercise: Return switch fluorescence ratio (reported value) for this sequence: CGGAAACATT
Key: 1.04

Exercise: Return switch fluorescence ratio (reported value) for this sequence: TTAATTAATA
Key: 0.985

Exercise: Return switch fluorescence ratio (reported value) for this sequence: CTTGGGAGAA
Key: 0.996

Exercise: Return switch fluorescence ratio (reported value) for this sequence: TTTGGGCACT
Key: 0.996

Exercise: Return switch fluorescence ratio (reported value) for this sequence: ACGACCTGCA
Key: 1.51

Exercise: Return switch fluorescence ratio (reported value) for this sequence: TATAGGTTGG
Key: 1.02

Exercise: Return switch fluorescence ratio (reported value) for this sequence: TTTTTATAAC
Key: 1

Exercise: Return switch fluorescence ratio (reported value) for this sequence: CCGGTTAAGG
Key: 1

Exercise: Return switch fluorescence ratio (reported value) for this sequence: TTTATACCGA
Key: 1.07

====

System: ATP;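 further: ATP exposure 15 min at 22 °C before imaging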
protocol.notes: switch fluorescence ratio, 500 uM ATP over buffer (Cy3 cluster intensity, sum of 5 cycles each) (fold (ratio)); higher = stronger signal-on switching upon ATP binding; sequences stand for … in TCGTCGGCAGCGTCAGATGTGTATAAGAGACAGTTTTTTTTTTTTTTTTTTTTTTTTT…TC
experimental.context: aptamer strand: ATP DNA aptamer (quencher-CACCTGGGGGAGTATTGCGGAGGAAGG + anchor), 100 nM annealed; ATP concentration: 500 uM
reported.metric: switch fluorescence ratio
Reply with just the number.

Exercise: Return switch fluorescence ratio (reported value) for this sequence: GCGTCGAAGG
Key: 0.981

Exercise: Return switch fluorescence ratio (reported value) for this sequence: ATCTTGAGAC
Key: 1.02

Exercise: Return switch fluorescence ratio (reported value) for this sequence: AACGGTTGCG
Key: 0.965

Exercise: Return switch fluorescence ratio (reported value) for this sequence: TCGGCCAGGT
Key: 1.5

Exercise: Return switch fluorescence ratio (reported value) for this sequence: GCAATTTGGT
Key: 1.03

Exercise: Return switch fluorescence ratio (reported value) for this sequence: AACTGTCAGA
Key: 0.99

Exercise: Return switch fluorescence ratio (reported value) for this sequence: GGTGAGAGGT
Key: 0.97

Exercise: Return switch fluorescence ratio (reported value) for this sequence: TTCTGGAACT
Key: 1.03

Exercise: Return switch fluorescence ratio (reported value) for this sequence: GGTGGGGGTT
Key: 0.999

Exercise: Return switch fluorescence ratio (reported value) for this sequence: GTGGTGGGGT
Key: 1.01

Exercise: Return switch fluorescence ratio (reported value) for this sequence: TAATTGTTGT
Key: 1

Exercise: Return switch fluorescence ratio (reported value) for this sequence: GAATGCTGGT
Key: 0.966

Exercise: Return switch fluorescence ratio (reported value) for this sequence: TAAGTGACAA
Key: 1.05

Exercise: Return switch fluorescence ratio (reported value) for this sequence: GATGTATAGA
Key: 1.01

Exercise: Return switch fluorescence ratio (reported value) for this sequence: TTTACTTGTG
Key: 1.01

Exercise: Return switch fluorescence ratio (reported value) for this sequence: TTTGTCATGT
Key: 0.976

Exercise: Return switch fluorescence ratio (reported value) for this sequence: ATGTAAACGC
Key: 1.03

Exercise: Return switch fluorescence ratio (reported value) for this sequence: AGAGAGTTAT
Key: 1.02

Exercise: Return switch fluorescence ratio (reported value) for this sequence: GGTTTTGTGC
Key: 1.03

Exercise: Return switch fluorescence ratio (reported value) for this sequence: CTATAGGTAA
Key: 0.996

Exercise: Return switch fluorescence ratio (reported value) for this sequence: ATTTCGAGTT
Key: 0.972

Exercise: Return switch fluorescence ratio (reported value) for this sequence: GTTATTATGC
Key: 0.952

Exercise: Return switch fluorescence ratio (reported value) for this sequence: GCGGTTTCCT
Key: 1.02

Exercise: Return switch fluorescence ratio (reported value) for this sequence: GGCCTCGCCT
Key: 0.985

Exercise: Return switch fluorescence ratio (reported value) for this sequence: AGGGTTAACA
Key: 1.01

Exercise: Return switch fluorescence ratio (reported value) for this sequence: GTGAGGGGCG
Key: 0.964

Exercise: Return switch fluorescence ratio (reported value) for this sequence: TTTTGGAATT
Key: 1.04

Exercise: Return switch fluorescence ratio (reported value) for this sequence: CGGTTGTGTA
Key: 1.03

Exercise: Return switch fluorescence ratio (reported value) for this sequence: GTGATCGTCG
Key: 1.01

Exercise: Return switch fluorescence ratio (reported value) for this sequence: CGAATTCCAC
Key: 1.02

Exercise: Return switch fluorescence ratio (reported value) for this sequence: CCTTAGGGGG
Key: 1.24

Exercise: Return switch fluorescence ratio (reported value) for this sequence: ATAGGAGTGG
Key: 0.964

Exercise: Return switch fluorescence ratio (reported value) for this sequence: ACAATCGAGC
Key: 0.988

Exercise: Return switch fluorescence ratio (reported value) for this sequence: GGGAATTCTG
Key: 0.985

Exercise: Return switch fluorescence ratio (reported value) for this sequence: GATGGGGTTT
Key: 1

Exercise: Return switch fluorescence ratio (reported value) for this sequence: GCATGTGTGG
Key: 0.995

Exercise: Return switch fluorescence ratio (reported value) for this sequence: TAAGTAGGGG
Key: 0.981

Exercise: Return switch fluorescence ratio (reported value) for this sequence: AAATTTACCT
Key: 1.42

Exercise: Return switch fluorescence ratio (reported value) for this sequence: CGCCCAAAGG
Key: 1.13

Exercise: Return switch fluorescence ratio (reported value) for this sequence: TGCTTGTTAC
Key: 1.03

Exercise: Return switch fluorescence ratio (reported value) for this sequence: TCTTGAATGG
Key: 0.986

Exercise: Return switch fluorescence ratio (reported value) for this sequence: ATGTGTACCC
Key: 1.04

Exercise: Return switch fluorescence ratio (reported value) for this sequence: TCGTTGTTTT
Key: 1.02

====

Test system: ATP;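 further: ATP exposure 15 min at 22 °C before imaging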
protocol.notes: switch fluorescence ratio, 500 uM ATP over buffer (Cy3 cluster intensity, sum of 5 cycles each) (fold (ratio)); higher = stronger signal-on switching upon ATP binding; sequences stand for … in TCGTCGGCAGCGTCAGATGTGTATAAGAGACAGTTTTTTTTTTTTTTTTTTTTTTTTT…TC
experimental.context: aptamer strand: ATP DNA aptamer (quencher-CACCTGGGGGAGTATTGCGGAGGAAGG + anchor), 100 nM annealed; ATP concentration: 500 uM
Task for the reader: assign each of the following sequences its reported switch fluorescence ratio.
Reply with just the number.

Exercise: Return switch fluorescence ratio (reported value) for this sequence: GAGTTGGGGA
Key: 1

Exercise: Return switch fluorescence ratio (reported value) for this sequence: TATGTAGTAG
Key: 0.971

Exercise: Return switch fluorescence ratio (reported value) for this sequence: TACCTGAAAA
Key: 0.985

Exercise: Return switch fluorescence ratio (reported value) for this sequence: AATGGTGCCT
Key: 0.996

Exercise: Return switch fluorescence ratio (reported value) for this sequence: TTGAAGCGGA
Key: 1.03

Exercise: Return switch fluorescence ratio (reported value) for this sequence: GCTTGTCTCG
Key: 1

Exercise: Return switch fluorescence ratio (reported value) for this sequence: GGTACAGAAT
Key: 1

Exercise: Return switch fluorescence ratio (reported value) for this sequence: GGAGAGCGGT
Key: 1.02

Exercise: Return switch fluorescence ratio (reported value) for this sequence: CAATTTTGTG
Key: 0.981

Exercise: Return switch fluorescence ratio (reported value) for this sequence: TGTGGGGTTG
Key: 0.994

Exercise: Return switch fluorescence ratio (reported value) for this sequence: TGTAGGGTCA
Key: 0.982

Exercise: Return switch fluorescence ratio (reported value) for this sequence: AGCTTGGAAA
Key: 1

Exercise: Return switch fluorescence ratio (reported value) for this sequence: GCCGGATTGA
Key: 1.02

Exercise: Return switch fluorescence ratio (reported value) for this sequence: GAGAGCTCAC
Key: 1.01

Exercise: Return switch fluorescence ratio (reported value) for this sequence: TCTTGGGGGT
Key: 1.03

Exercise: Return switch fluorescence ratio (reported value) for this sequence: ATGTTTTGAG
Key: 0.983

Exercise: Return switch fluorescence ratio (reported value) for this sequence: CTGGGAAGGC
Key: 1.13

Exercise: Return switch fluorescence ratio (reported value) for this sequence: TTTGGAGACT
Key: 1.03

Exercise: Return switch fluorescence ratio (reported value) for this sequence: GCCGCTATTT
Key: 1.43

Exercise: Return switch fluorescence ratio (reported value) for this sequence: CGCCAGATTT
Key: 0.996

Hey, just so you know, these numbers are from the supplement of paper PMC10126150.
